Molecular target: fusion protein Tel/PDGF-R beta (PDGF beta receptor) in BaF/3 cells (Homo sapiens, UniProt P09619)
Construct: the transmembrane and intracellular part of the PDGF-R beta receptor; the other entry of the earlier key: ETV6 (P41212, Transcription factor ETV6)
Sequence (P09619 with tags, fused parts or gaps): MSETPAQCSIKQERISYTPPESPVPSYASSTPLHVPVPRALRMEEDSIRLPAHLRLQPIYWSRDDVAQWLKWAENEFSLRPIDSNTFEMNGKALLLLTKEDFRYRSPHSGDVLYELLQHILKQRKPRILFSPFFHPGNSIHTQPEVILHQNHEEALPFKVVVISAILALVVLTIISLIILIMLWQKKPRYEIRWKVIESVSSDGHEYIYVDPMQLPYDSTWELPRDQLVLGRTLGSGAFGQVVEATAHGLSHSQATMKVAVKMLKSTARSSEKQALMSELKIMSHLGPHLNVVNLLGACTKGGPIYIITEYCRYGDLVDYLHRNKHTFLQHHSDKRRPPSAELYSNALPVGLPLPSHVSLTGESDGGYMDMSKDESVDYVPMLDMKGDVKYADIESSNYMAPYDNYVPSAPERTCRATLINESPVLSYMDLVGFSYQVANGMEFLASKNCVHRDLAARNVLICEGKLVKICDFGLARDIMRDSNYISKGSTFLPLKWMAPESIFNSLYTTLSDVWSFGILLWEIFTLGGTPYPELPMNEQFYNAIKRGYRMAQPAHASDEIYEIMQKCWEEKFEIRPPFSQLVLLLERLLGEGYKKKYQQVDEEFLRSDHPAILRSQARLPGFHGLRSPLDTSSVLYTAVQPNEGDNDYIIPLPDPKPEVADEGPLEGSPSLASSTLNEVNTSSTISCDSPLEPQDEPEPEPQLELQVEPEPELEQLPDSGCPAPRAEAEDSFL
Assay: Inhibition of proliferation of BaF3 Tel/PDGF cells (tyrosine kinase activity of PDGF-R beta), CellTiter-Glo, 72 h
Conditions: 72 h incubation, cellular ATP, read-out: IC50 (concentration that inhibits 50% of the proliferation of Baf3 tel/PDGF cells)
measurement label: IC50 (nM)

CCc1ccnc(NC(=O)Cc2ccc(-c3ccc4c(=O)c(-c5ncc[nH]5)c(N)n(CC)c4n3)cc2)c1 | 1.4

P = CCn1c(N)c(-c2ncc[nH]2)c(=O)c2ccc(-c3ccc(CC(=O)Nc4onc(C)c4C)cc3)nc21
Q = CCN1CCCC1CNC(=O)Cc1ccc(-c2ccc3c(=O)c(-c4ncc[nH]4)c(N)n(CC)c3n2)c(C)c1 (centres unmarked)
R = CCn1c(N)c(-c2ncc[nH]2)c(=O)c2ccc(-c3ccc(CC(=O)NCCCc4ccccc4)cc3)nc21
Problem: Arrange the 3 entries by IC50 so the values rise. Returns: the labels arranged in the requested order.
Result: P, R, Q
(P: 2 nM, R: 5.9 nM, Q: 9.8 nM)

----------
Structures can show the parent of a compound that is named as a salt.
measurement label: melting point (°C)

Solved entries:
CCn1c(N)c(-c2ncc[nH]2)c(=O)c2ccc(-c3ccc(CCCC(=O)NCc4ccncc4)cc3)nc21 | 240
CCn1c(N)c(-c2ncc[nH]2)c(=O)c2ccc(-c3ccc(C(C)C(=O)NCc4ccncc4)cc3)nc21 (stereo not shown) | 186

I = CCn1c(N)c(-c2ncc[nH]2)c(=O)c2ccc(-c3ccc(CC(=O)NCC4COCCN4C4CC4)cc3)nc21 (stereo not shown) (as salt: HCl)
II = CCn1c(N)c(-c2nc(C)c[nH]2)c(=O)c2ccc(-c3ccc(CC(=O)NCc4ccncc4)cc3)nc21 (as salt: salt)
Problem: Of the pair I and II , name the member with the lesser recorded melting point. Response format: the label of the selected entry.
Result: II

----------
Target: Flt-3 receptor (constitutively active mutant Flt3ITD, MV4-11 cell line) (Homo sapiens, UniProt P36888, INS600HVDFREYEYD)
Construct: bearing a constitutively active mutant Flt3ITD; endogenous in cells
Sequence (P36888 with tags, fused parts or gaps with the stated changes): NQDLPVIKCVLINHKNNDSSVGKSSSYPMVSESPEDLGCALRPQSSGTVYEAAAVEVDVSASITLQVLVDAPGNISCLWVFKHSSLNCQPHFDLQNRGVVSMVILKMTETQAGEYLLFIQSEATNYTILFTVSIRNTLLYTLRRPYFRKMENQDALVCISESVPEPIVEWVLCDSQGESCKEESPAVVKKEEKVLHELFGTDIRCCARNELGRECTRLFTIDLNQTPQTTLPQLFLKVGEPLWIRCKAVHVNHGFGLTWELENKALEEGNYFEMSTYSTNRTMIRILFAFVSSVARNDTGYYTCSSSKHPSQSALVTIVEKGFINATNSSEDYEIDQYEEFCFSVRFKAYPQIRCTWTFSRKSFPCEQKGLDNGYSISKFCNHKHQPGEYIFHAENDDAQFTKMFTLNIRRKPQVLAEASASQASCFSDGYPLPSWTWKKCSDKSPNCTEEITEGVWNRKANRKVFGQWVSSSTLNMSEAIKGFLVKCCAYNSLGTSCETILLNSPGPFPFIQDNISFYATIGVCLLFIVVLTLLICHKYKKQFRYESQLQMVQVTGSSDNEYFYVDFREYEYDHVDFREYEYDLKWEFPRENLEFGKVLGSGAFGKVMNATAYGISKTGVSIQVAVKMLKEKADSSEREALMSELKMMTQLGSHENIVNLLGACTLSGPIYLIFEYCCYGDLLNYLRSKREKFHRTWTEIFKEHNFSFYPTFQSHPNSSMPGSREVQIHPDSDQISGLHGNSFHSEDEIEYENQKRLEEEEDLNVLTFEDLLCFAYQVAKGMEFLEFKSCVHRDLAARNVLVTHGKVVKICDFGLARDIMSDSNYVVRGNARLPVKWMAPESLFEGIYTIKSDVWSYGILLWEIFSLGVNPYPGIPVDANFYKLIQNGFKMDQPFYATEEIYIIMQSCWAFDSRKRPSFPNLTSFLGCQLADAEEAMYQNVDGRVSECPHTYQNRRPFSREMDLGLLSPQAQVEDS
Assay: Inhibition of proliferation of MV4-11 cells (tyrosine kinase activity of Flt-3 receptor), CellTiter-Glo, 72 h
Details: 72 h incubation, cellular ATP, read-out: IC50 (concentration that inhibits 50% of the proliferation of the MV4-11 cells)
pIC50: −log10 of the molar value.
measurement label: pIC50

CCn1c(N)c(-c2ncc[nH]2)c(=O)c2ccc(-c3ccc(CC(=O)Nc4onc(C)c4C)cc3)nc21 [Compound 27] | 7.52
CCc1ccnc(NC(=O)Cc2ccc(-c3ccc4c(=O)c(-c5ncc[nH]5)c(N)n(CC)c4n3)cc2)c1 [Compound 43] | 7.72
CCn1c(N)c(-c2nc(C)c[nH]2)c(=O)c2ccc(-c3ccc(CC(=O)NCc4ccncc4)cc3)nc21 [Compound 50] | 6.94
CCn1c(N)c(-c2ncc[nH]2)c(=O)c2ccc(-c3ccc(CC(=O)Nc4ncc(Cl)s4)cc3)nc21 [Compound 26] | 7.02
CCn1c(N)c(-c2ncc[nH]2)c(=O)c2ccc(-c3ccc(CC(=O)Nc4ncccc4C)cc3)nc21 [Compound 32] | 7.16

I = CCn1c(N)c(-c2ncc[nH]2)c(=O)c2ccc(-c3ccc(CC(=O)Nc4nnc(C5CC5)s4)cc3)nc21 [Compound 20]
II = CCn1c(N)c(-c2ncc[nH]2)c(=O)c2ccc(-c3ccc(CC(=O)Nc4ncc(C)s4)cc3)nc21 [Compound 8]
III = CCn1c(N)c(-c2ncc[nH]2)c(=O)c2ccc(-c3ccc(CC(=O)Nc4cnccc4C)cc3)nc21 [Compound 42]
Problem: Please give the order of these compounds when sorted by pIC50, largest value leading. Your reply should list the labels following the order given in the request.
Result: I, II, III

----------
Structures can show the parent of a compound that is named as a salt.
measurement label: melting point (°C)

Nc1c(-c2ncc[nH]2)c(=O)c2ccc(-c3ccc(CC(=O)NCc4ccncc4)cc3)nc2n1CC1CC1 (as salt: TFA) | 118
CCN1CCCC1CNC(=O)Cc1ccc(-c2ccc3c(=O)c(-c4ncc[nH]4)c(N)n(CC)c3n2)cc1F (stereo not shown) | 100

I = CCn1c(N)c(-c2ncc[nH]2)c(=O)c2ccc(-c3ccc(CC(=O)NCc4ccncc4)nc3)nc21 (as salt: TFA)
II = CCn1c(N)c(-c2ncc[nH]2)c(=O)c2ccc(-c3ccc(CC(=O)Nc4ccccn4)cn3)nc21 (as salt: HCl)
Problem: Given the listed items, does I or II have the lesser reported melting point? Field: selected label. Fill in the label of the entry you choose.
Result: I
(I: 120 °C, II: 200 °C)

----------
Biological target: fusion protein Tel/PDGF-R beta (PDGF beta receptor) in BaF/3 cells (Homo sapiens, UniProt P09619)
Construct: the transmembrane and intracellular part of the PDGF-R beta receptor; the other entry of the earlier key: ETV6 (P41212, Transcription factor ETV6)
Assay: Inhibition of proliferation of BaF3 Tel/PDGF cells (tyrosine kinase activity of PDGF-R beta), CellTiter-Glo, 72 h
Conditions: 72 h incubation, cellular ATP, read-out: IC50 (concentration that inhibits 50% of the proliferation of Baf3 tel/PDGF cells)
measurement label: IC50 (nM)

Nc1c(-c2ncc[nH]2)c(=O)c2ccc(-c3ccc(CC(=O)NCc4ccncc4)cc3)nc2n1CC1CC1 | 8.9
CCn1c(N)c(-c2ncc[nH]2)c(=O)c2ccc(-c3ccc(CC(=O)Nc4ncc(C)s4)cc3)nc21 | 2
CCn1c(N)c(-c2nc(C)c[nH]2)c(=O)c2ccc(-c3ccc(CC(=O)NCc4ccncc4)cc3)nc21 | 6.6
CCn1c(N)c(-c2ncc[nH]2)c(=O)c2ccc(-c3ccc(CC(=O)Nc4nnc(C)s4)cc3)nc21 | 2.4

P = CCn1c(N)c(-c2ncc[nH]2)c(=O)c2ccc(-c3ccc(CC(=O)Nc4nnc(C5CC5)s4)cc3)nc21
Q = CCn1c(N)c(-c2ncc[nH]2)c(=O)c2ccc(-c3ccc(CC(=O)Nc4ccc(C)nc4)cc3)nc21
R = Nc1c(-c2ncc[nH]2)c(=O)c2ccc(-c3ccc(CC(=O)NCc4ccncc4)cc3)nc2n1C1CCCC1
Problem: Sort the 3 compounds by IC50; largest first, smallest last. # respond with the labels, arranged in the requested order
Result: R, P, Q
